B1: HDV Ribozyme (parent)
chain: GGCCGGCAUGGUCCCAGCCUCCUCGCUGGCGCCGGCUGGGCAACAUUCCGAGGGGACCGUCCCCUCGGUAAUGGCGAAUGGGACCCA

- Variants of: B1
- Procedure summary: self-cleavage, relative activity (ratio to wild type); higher = more cleavage; co-transcriptional
Kind request: treat 0.4 as inclusive, so self-cleavage at 0.4 or higher is class 1, anything lower is class 0.

hey, is self-cleavage for this one >= 0.4? C7A U65A
class 0

hey, is self-cleavage for this one >= 0.4? C15U U47G
class 1

hey, is self-cleavage for this one >= 0.4? G35A C61U
class 1

hey, is self-cleavage for this one >= 0.4? U9C A70G
class 1

hey, is self-cleavage for this one >= 0.4? A71U A77C
class 0

hey, is self-cleavage for this one >= 0.4? U23C A42G
class 0

hey, is self-cleavage for this one >= 0.4? G17A G40U
class 1

hey, is self-cleavage for this one >= 0.4? `U69C`
class 1

hey, is self-cleavage for this one >= 0.4? G11U U60A
class 0

hey, is self-cleavage for this one >= 0.4? U20C C24G
class 0

hey, is self-cleavage for this one >= 0.4? U60A C66U
class 1
